target: limbic D2 (dopamine) receptor (Rattus norvegicus); construct: from tissue; test: inhibition of ^3 H-spiroperidol binding to limbic brain tissue (D2 receptor affinity); settings: 1 μM test compound, read-out: % Inhibition at 1 μM (Affinity for D2 Receptor Sites)
Sequence (P61169 whole entry): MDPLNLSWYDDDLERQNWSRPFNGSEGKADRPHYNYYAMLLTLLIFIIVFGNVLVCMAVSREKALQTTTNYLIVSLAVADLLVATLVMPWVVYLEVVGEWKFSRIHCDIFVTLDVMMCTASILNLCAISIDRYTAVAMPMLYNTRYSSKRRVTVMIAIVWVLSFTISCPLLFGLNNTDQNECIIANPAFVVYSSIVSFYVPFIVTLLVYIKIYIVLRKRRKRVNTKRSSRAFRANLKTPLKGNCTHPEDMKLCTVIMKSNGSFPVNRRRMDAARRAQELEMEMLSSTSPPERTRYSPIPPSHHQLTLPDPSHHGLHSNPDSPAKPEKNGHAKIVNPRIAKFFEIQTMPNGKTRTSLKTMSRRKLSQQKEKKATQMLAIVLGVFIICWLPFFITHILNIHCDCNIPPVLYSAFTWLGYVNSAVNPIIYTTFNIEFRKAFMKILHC
QUANTITY_MEASURED: inhibition at 1 µM (%)

Solved entries:
* COc1ccccc1N1CCN(CCCNC(=O)NC23CC4CC(CC(C4)C2)C3)CC1 [Example 5] | 66
* O=C(NCCN1CCN(c2cccc(Cl)c2)CC1)NC12CC3CC(CC(C3)C1)C2 [Example 3] | 56
* O=C(NCCN1CCN(c2ncccn2)CC1)NC12CC3CC(CC(C3)C1)C2 [Example 1] | 15

P = O=C(NCCCN1CCN(c2ncccn2)CC1)NC12CC3CC(CC(C3)C1)C2 [Example 4]
Q = O=C(NCCCN1CCN(c2cccc(Cl)c2)CC1)NC12CC3CC(CC(C3)C1)C2 [Example 6]
## Task For the pair P and Q , which member has the lower inhibition at 1 µM number? Your choice should be expressed through its label.
## Result P
(P: 10%, Q: 38%)

---

biological target: 5-HT1A serotonin receptor subtype (Rattus norvegicus, UniProt P19327); construct: from tissue; assay: displacement of ^3 H-8-OH DPAT from the 5-HT1A serotonin receptor subtype (Hall et al.); type: binding; settings: 1 μM test compound, read-out: % Inhibition at 1 μM (Affinity for 5-HT1A Receptor Sites)
Sequence (P19327 whole entry): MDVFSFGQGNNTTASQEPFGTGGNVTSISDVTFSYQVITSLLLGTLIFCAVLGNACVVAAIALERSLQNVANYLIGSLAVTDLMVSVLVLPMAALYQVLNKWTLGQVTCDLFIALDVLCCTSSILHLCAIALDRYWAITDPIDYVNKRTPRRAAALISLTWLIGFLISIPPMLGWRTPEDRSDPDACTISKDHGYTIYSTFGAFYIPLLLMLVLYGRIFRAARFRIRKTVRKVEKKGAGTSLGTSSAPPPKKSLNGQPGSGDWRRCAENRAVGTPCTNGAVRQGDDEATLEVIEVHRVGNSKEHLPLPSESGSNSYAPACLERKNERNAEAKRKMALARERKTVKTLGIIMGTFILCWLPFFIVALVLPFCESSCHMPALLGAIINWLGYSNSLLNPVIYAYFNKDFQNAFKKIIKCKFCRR
QUANTITY_MEASURED: inhibition at 1 µM (%)

- O=C(NCCCN1CCN(c2cccc(Cl)c2)CC1)NC12CC3CC(CC(C3)C1)C2: 95
- O=C(NCCCN1CCN(c2ncccn2)CC1)NC12CC3CC(CC(C3)C1)C2: 100
- COc1ccccc1N1CCN(CCCNC(=O)NC23CC4CC(CC(C4)C2)C3)CC1: 100
- COc1ccccc1N1CCN(CCNC(=O)NC23CC4CC(CC(C4)C2)C3)CC1: 100
- O=C(NCCN1CCN(c2ncccn2)CC1)NC12CC3CC(CC(C3)C1)C2: 91

The measured values listed here are drawn from patent US4882432A.
